# STUDY_SYSTEM: human serum albumin (HSA) (Homo sapiens, UniProt P02768)
# Sequence (P02768 25-609): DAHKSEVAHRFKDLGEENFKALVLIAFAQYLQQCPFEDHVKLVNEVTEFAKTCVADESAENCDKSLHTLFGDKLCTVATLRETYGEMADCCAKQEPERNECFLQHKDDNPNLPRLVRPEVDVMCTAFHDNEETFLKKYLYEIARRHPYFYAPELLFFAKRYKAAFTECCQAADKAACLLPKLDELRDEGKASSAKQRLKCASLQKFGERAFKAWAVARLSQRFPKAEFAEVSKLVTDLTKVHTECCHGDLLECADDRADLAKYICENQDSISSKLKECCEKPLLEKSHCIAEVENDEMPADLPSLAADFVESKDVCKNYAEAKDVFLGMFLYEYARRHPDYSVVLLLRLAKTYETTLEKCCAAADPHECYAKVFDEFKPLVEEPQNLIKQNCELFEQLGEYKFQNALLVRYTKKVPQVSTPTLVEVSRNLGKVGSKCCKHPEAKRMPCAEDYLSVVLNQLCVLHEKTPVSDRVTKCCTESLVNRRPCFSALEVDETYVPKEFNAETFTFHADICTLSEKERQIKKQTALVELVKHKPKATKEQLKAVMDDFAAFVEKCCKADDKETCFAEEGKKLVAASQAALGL
# ASSAY_TEXT: HSA fluorescence quenching (protein-binding experiments)
# APPLIED_CONDITIONS: [HSA] = 1 μM, [Ru] 0–10 μM, PBS pH 7.4, 37 °C
METRIC: K a, association constant for formation of HSA-ruthenium(II) polypyridyl complex adducts

What the record says about Cc1ccnc(-c2cc(C)ccn2)c1.[Ru+2].c1ccc(-c2ccnc3c2ccc2c(-c4ccccc4)ccnc23)cc1.c1ccc(-c2ccnc3c2ccc2c(-c4ccccc4)ccnc23)cc1 [[Ru(dip)2(CH3bpy-CH3)]^2+] : K a, association constant for formation of HSA-ruthenium(II) polypyridyl complex adducts is 1.24 ± 0.06 ×10^5 M^−1

What the record says about [Ru+2].c1ccc(-c2ccccn2)nc1.c1ccc(-c2ccnc3c2ccc2c(-c4ccccc4)ccnc23)cc1.c1ccc(-c2ccnc3c2ccc2c(-c4ccccc4)ccnc23)cc1 [[Ru(dip)2(bpy)]^2+] : K a, association constant for formation of HSA-ruthenium(II) polypyridyl complex adducts is 0.78 ± 0.02 ×10^5 M^−1

What the record says about Cc1ccnc(-c2cc(C(=O)[O-])ccn2)c1.[Ru+2].c1ccc(-c2ccnc3c2ccc2c(-c4ccccc4)ccnc23)cc1.c1ccc(-c2ccnc3c2ccc2c(-c4ccccc4)ccnc23)cc1 [[Ru(dip)2(CH3bpy-COO)]^+] : K a, association constant for formation of HSA-ruthenium(II) polypyridyl complex adducts is 1.17 ± 0.04 ×10^5 M^−1

What the record says about O=[N+]([O-])c1nccn1CCCc1ccnc(-c2ccccn2)c1.[Ru+2].c1ccc(-c2ccnc3c2ccc2c(-c4ccccc4)ccnc23)cc1.c1ccc(-c2ccnc3c2ccc2c(-c4ccccc4)ccnc23)cc1 [[Ru(dip)2(bpy-NitroIm)]^2+] : K a, association constant for formation of HSA-ruthenium(II) polypyridyl complex adducts is 1.10 ± 0.06 ×10^5 M^−1

###

Measured log P o/w, listed per entry for reference.
# ASSAY_TEXT: n-octan-1-ol/water partition (lipophilicity)
# Type: physicochemical
# APPLIED_CONDITIONS: 25 °C
// return just the number, without any unit appended

// known answers, use as guide
| COMPOUND | log P o/w |
| --- | --- |
| [Ru+2].c1ccc(-c2ccccn2)nc1.c1ccc(-c2ccnc3c2ccc2c(-c4ccccc4)ccnc23)cc1.c1ccc(-c2ccnc3c2ccc2c(-c4ccccc4)ccnc23)cc1 [[Ru(dip)2(bpy)]^2+] | 0.328 |
| Cc1ccnc(-c2cc(C)ccn2)c1.[Ru+2].c1ccc(-c2ccnc3c2ccc2c(-c4ccccc4)ccnc23)cc1.c1ccc(-c2ccnc3c2ccc2c(-c4ccccc4)ccnc23)cc1 [[Ru(dip)2(CH3bpy-CH3)]^2+] | 0.484 |
| Cc1ccnc(-c2cc(C(=O)[O-])ccn2)c1.[Ru+2].c1ccc(-c2ccnc3c2ccc2c(-c4ccccc4)ccnc23)cc1.c1ccc(-c2ccnc3c2ccc2c(-c4ccccc4)ccnc23)cc1 [[Ru(dip)2(CH3bpy-COO)]^+] | 1.857 |

Consider the additional compound presented here.
What the record says about O=[N+]([O-])c1nccn1CCCc1ccnc(-c2ccccn2)c1.[Ru+2].c1ccc(-c2ccnc3c2ccc2c(-c4ccccc4)ccnc23)cc1.c1ccc(-c2ccnc3c2ccc2c(-c4ccccc4)ccnc23)cc1 [[Ru(dip)2(bpy-NitroIm)]^2+] : log P o/w is 0.413

###

# System: FVB mouse lung microvascular endothelial cells (MLuMEC FVB)
# ASSAY_TEXT: Alamar Blue cell viability, MLuMEC
# Assay type: cell-based
# APPLIED_CONDITIONS: 24 h, with serum (2%)
# Method: FVB mouse lung microvascular endothelial cells (MLuMEC FVB) and murine endothelial cells isolated from aorta-gonad-mesonephros (AGM) region of 10.5 dpc embryos (MAgEC 10.5) were cultured in OptiMEM with Glutamax-I (Gibco Invitrogen) supplemented with 2% fetal bovine serum (FBS), 0.4% gentamycin and 0.2% fungizone. […] Cell viability was measured using Alamar Blue assay. […] The viability was calculated with regard to the untreated cells control. […]
Friendly reminder: IC50 below 10 µM is yes (1), at or above is no (0).

Field: example entries. Status: answers known.
| COMPOUND | STUDY_SYSTEM | QUALITATIVE_LABEL |
| --- | --- | --- |
| N.N.[Cl][Pt][Cl] [Cisplatin, reference compound] | FVB mouse lung microvascular endothelial cells (MLuMEC FVB) | no (0) |
| Cc1ccnc(-c2cc(C)ccn2)c1.[Ru+2].c1ccc(-c2ccnc3c2ccc2c(-c4ccccc4)ccnc23)cc1.c1ccc(-c2ccnc3c2ccc2c(-c4ccccc4)ccnc23)cc1 [[Ru(dip)2(CH3bpy-CH3)]^2+] | FVB mouse lung microvascular endothelial cells (MLuMEC FVB) | yes (1) |
| Cc1ccnc(-c2cc(C(=O)[O-])ccn2)c1.[Ru+2].c1ccc(-c2ccnc3c2ccc2c(-c4ccccc4)ccnc23)cc1.c1ccc(-c2ccnc3c2ccc2c(-c4ccccc4)ccnc23)cc1 [[Ru(dip)2(CH3bpy-COO)]^+] | FVB mouse lung microvascular endothelial cells (MLuMEC FVB) | no (0) |
| O=[N+]([O-])c1nccn1CCCc1ccnc(-c2ccccn2)c1.[Ru+2].c1ccc(-c2ccnc3c2ccc2c(-c4ccccc4)ccnc23)cc1.c1ccc(-c2ccnc3c2ccc2c(-c4ccccc4)ccnc23)cc1 [[Ru(dip)2(bpy-NitroIm)]^2+] | FVB mouse lung microvascular endothelial cells (MLuMEC FVB) | no (0) |

In: For [Ru+2].c1ccc(-c2ccccn2)nc1.c1ccc(-c2ccnc3c2ccc2c(-c4ccccc4)ccnc23)cc1.c1ccc(-c2ccnc3c2ccc2c(-c4ccccc4)ccnc23)cc1 [[Ru(dip)2(bpy)]^2+] , is the recorded IC50 below the cut-off of 10 µM?
Out: no (0)
